# measured_target: human serum albumin (human) (UniProt P02768)
# Sequence (P02768 25-609 limits assumed): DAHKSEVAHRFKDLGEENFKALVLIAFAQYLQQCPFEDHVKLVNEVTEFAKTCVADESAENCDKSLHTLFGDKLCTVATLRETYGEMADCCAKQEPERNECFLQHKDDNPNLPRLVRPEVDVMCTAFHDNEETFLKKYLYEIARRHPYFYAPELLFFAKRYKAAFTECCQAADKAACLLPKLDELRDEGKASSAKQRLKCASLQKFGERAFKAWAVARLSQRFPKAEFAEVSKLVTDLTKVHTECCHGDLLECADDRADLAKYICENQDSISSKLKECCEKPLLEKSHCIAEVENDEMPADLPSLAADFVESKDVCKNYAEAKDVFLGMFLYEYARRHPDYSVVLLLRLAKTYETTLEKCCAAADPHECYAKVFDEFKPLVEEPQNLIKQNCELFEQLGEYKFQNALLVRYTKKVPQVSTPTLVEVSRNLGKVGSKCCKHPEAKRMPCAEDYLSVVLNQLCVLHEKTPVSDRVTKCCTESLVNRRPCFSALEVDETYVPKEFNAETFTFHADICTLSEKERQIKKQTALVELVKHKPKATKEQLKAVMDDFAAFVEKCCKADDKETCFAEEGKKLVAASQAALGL
# experiment_summary: screening ELISA
readout_name: HSA

I. SEQ ID NO 261 (designed binder) MLPAPKNLVVSRVTEDSARLSWTAPDAAFDSFTIVYGEWGVPGEAIVLTVPGSERSYDLTGLKPGTEYDVWIEGVKGGDLSWPLSAIVTT
II. SEQ ID NO 110 (designed binder) MLPAPKNLVVSRVTEDSARLSWTAPDAAFDSFFIHYHEWWEAGEAIVLTVPGSERSYDLTGLKPGTEYLVDIPGVKGGDLSVPLSAIFTT
Between item I and item II , which reported HSA is smaller? Your answer should be the label of the entry you select.
I
(I: 5550, II: 18800)
